Measured values drawn from patent US20240173432A1 for this set.

Test system: CAG foci in primary DM1 patient myoblasts
test_details: Single-cut screening: CAG foci staining
Format: cell-based, human
condition_set: single sgRNA, vehicle
Lab note: anything with % of CAG foci positive nuclei (Vehicle) at or over 1% counts as true; the rest go in false.

[
  {
    "substance": "GGTCCTGTAGCCTGTCAGCGAG (guide RNA; chemistry not fully specified) [SluD69]",
    "system": "CAG foci in primary DM1 patient myoblasts",
    "class_label": "true"
  },
  {
    "substance": "GGGCCTTTTATTCGCGAGGGTC (guide RNA; chemistry not fully specified) [SluD95]",
    "system": "CAG foci in primary DM1 patient myoblasts",
    "class_label": "true"
  },
  {
    "substance": "TGCACTGAGACCCCGACATTCC (guide RNA; chemistry not fully specified) [SluD79]",
    "system": "CAG foci in primary DM1 patient myoblasts",
    "class_label": "false"
  },
  {
    "substance": "GGCCCGCCCCCTAGCggccggg (guide RNA; as printed in the source, key not given here) [SluU38]",
    "system": "CAG foci in primary DM1 patient myoblasts",
    "class_label": "false"
  },
  {
    "substance": "CTTCGAgccccgttcgccggcc (guide RNA; as printed in the source, key not given here) [SluU61]",
    "system": "CAG foci in primary DM1 patient myoblasts",
    "class_label": "false"
  },
  {
    "substance": "TCAGCCTGGCCGAAAGAAAGAA (guide RNA; chemistry not fully specified) [SluD04]",
    "system": "CAG foci in primary DM1 patient myoblasts",
    "class_label": "true"
  },
  {
    "substance": "ATTTCTTTCTTTCGGCCAGGCT (guide RNA; chemistry not fully specified) [SluD03]",
    "system": "CAG foci in primary DM1 patient myoblasts",
    "class_label": "true"
  },
  {
    "substance": "GGGCGCGGGATCCCCGAAAAAG (guide RNA; chemistry not fully specified) [SluD43]",
    "system": "CAG foci in primary DM1 patient myoblasts",
    "class_label": "true"
  },
  {
    "substance": "TGTGATCCGGGCCCGCCCCCTA (guide RNA; chemistry not fully specified) [SluU33]",
    "system": "CAG foci in primary DM1 patient myoblasts",
    "class_label": "true"
  },
  {
    "substance": "ggccgggtccgcggccggcgaa (GGCCGGGTCCGCGGCCGGCGAA; guide RNA; chemistry not fully specified) [SluU56]",
    "system": "CAG foci in primary DM1 patient myoblasts",
    "class_label": "false"
  },
  {
    "substance": "CCTGACGTGGATGGGCAAACTG (guide RNA; chemistry not fully specified) [SluD09]",
    "system": "CAG foci in primary DM1 patient myoblasts",
    "class_label": "true"
  },
  {
    "substance": "CTTTTGCCAAACCCGCTTTTTC (guide RNA; chemistry not fully specified) [SluD41]",
    "system": "CAG foci in primary DM1 patient myoblasts",
    "class_label": "true"
  },
  {
    "substance": "gcggccggcgaacggggcTCGA (guide RNA; as printed in the source, key not given here) [SluU60]",
    "system": "CAG foci in primary DM1 patient myoblasts",
    "class_label": "true"
  },
  {
    "substance": "CCGAGAGCAGCGCAAGTGAGGA (guide RNA; chemistry not fully specified) [SluD50]",
    "system": "CAG foci in primary DM1 patient myoblasts",
    "class_label": "true"
  },
  {
    "substance": "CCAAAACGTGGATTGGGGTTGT (listed as DNA, chemistry not fully specified) [SluD73]",
    "system": "CAG foci in primary DM1 patient myoblasts",
    "class_label": "true"
  }
]
